Target: Vasopressin V1a receptor (Homo sapiens)
Test: V1R activation via calcium rise – fluorescence, CHO-V1R cells, counter-screen for OXTR agonist project, primary screen (AID 2797);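 note: signal is peak over basal fluorescence ratio across a 100 second FLIPR read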
Details: Fluo-8 calcium fluorescence, agonist mode, at 3 µM, hits give high values, 0% DMSO, 100% 3 nM vasopressin
Out of some 320,000 compounds screened, about 820 (0.26%) were called active. Shown is part of a subset that was picked to be rich in actives.
Provide the recorded activation for the entries that follow.
Give bare numbers, in %.

{"COMPOUND": "Cc1cc(C)cc(OCC(=O)NC(C)c2ccccc2)c1 (configuration not stated)", "UNIT ABBREV": "%", "activation": -1.15}
{"COMPOUND": "Cc1cccc(NC(=S)NCCc2ccc(Cl)cc2)c1C", "UNIT ABBREV": "%", "activation": 0.32}
{"COMPOUND": "CC1(C)S[C@@H]2[C@H](NC(=O)COc3ccccc3)C(=O)N2C1C(=O)OCc1ccccc1 (some centres not stated)", "UNIT ABBREV": "%", "activation": 1.45}
{"COMPOUND": "Cc1cnc(C(=O)OCc2c(C)cc(C(C)(C)C)cc2C)cn1", "UNIT ABBREV": "%", "activation": -0.09}
{"COMPOUND": "COc1ccccc1C1=CC(=O)CCC1", "UNIT ABBREV": "%", "activation": -0.32}
{"COMPOUND": "Cc1cc(N2C(=O)C(O)=C(C(=O)c3ccc(C)o3)C2c2ccc(OCc3ccccc3)cc2)no1 (configuration not stated)", "UNIT ABBREV": "%", "activation": 0.41}
{"COMPOUND": "COc1cc(OC)c(-n2cc(-c3ccc(Cl)cc3)[nH]c2=O)cc1Cl", "UNIT ABBREV": "%", "activation": 38.5}
{"COMPOUND": "CCNC(=O)CC1C(=O)N(c2ccc(OC)cc2)C(=S)N1CCc1ccncc1 (configuration not stated)", "UNIT ABBREV": "%", "activation": -0.58}

Give activation for each of the items listed below.
1. COc1cc(OC)cc(C(=O)N[C@H](C(=O)OCC(=O)NC(C)c2ccccc2)C(C)C)c1 (some centres not stated)
2. CCN1CCN(C(=O)CN(C)S(=O)(=O)c2ccc3ccccc3c2)CC1
3. S=c1nccc(-c2cc(Cl)sc2Cl)[nH]1
4. CC(c1ccco1)N(C(=O)Nc1ccccc1)C1CCCCC1 (configuration not stated)
5. Cc1cccc(CN2CCC(CNC(=O)Nc3ccc(F)c(Cl)c3)CC2)c1

Ans:
1. 68.5
2. 0.47
3. 0.23
4. -0.6
5. 26.4

Okay, here is my list. What is activation for each of these?
1. O=C(O)C1CCCN1C1=NS(=O)(=O)c2ccccc21 (configuration not stated)
2. CN(C)/C=C1/Nc2ccccc2C1=O
3. CCOC(=O)N1CCN(CCC(=O)Nc2ccccc2)CC1
4. Cc1ccc(O)c(NC(=S)NC(=O)COc2ccc(Br)cc2)c1

Ans:
[-0.02, 1.1, 0.3, 56]
